Test system: CHO-AA8
Assay: cells
Conditions: Cricetulus griseus, CHO-AA8, 18 h
Description: Growth inhibition of aerobic AA8 cells, after 18 hours exposure
A collection of molecules and their measured IC50
Be sure to follow the number with its unit.

Use the examples below as a reference point.
>>> print(df.to_string())
                                   molecule  readout  result
0  Cc1cnc2ccc(C)c([N+](=O)[O-])c2c1NCCCN(C)C     IC50  201 µM
1  CN(C)CCNC(=O)c1ccc(NNc2ccnc3cccc([N+](=O)[O-])c23)cc1     IC50   13 µM
2  Cc1nc2cccc([N+](=O)[O-])c2c(NCCCN(C)C)c1C     IC50   47 µM
3   O=[N+]([O-])c1cccc2nccc(NCCN3CCOCC3)c12     IC50   18 µM
4  COc1ccc([N+](=O)[O-])c2c(NCC(O)CO)ccnc12 (stereo unspecified)     IC50   50 µM

Pending molecule:
stdin: Return IC50 measured with CHO-AA8 given this molecule: `CCc1ccc2nccc(NCCCN(C)C)c2c1[N+](=O)[O-]`
stdout: 108 µM

###

A collection of compounds and their measured pKa
Test: physchem
Details: aqueous solution
Description: Pka was determined in aqueous solution

In [3]: df
Out[3]:
                               input_smiles  result
0  CN(C)CCNC(=O)c1ccc(NNc2ccnc3cccc([N+](=O)[O-])c23)cc1    5.08

Pending compound:
stdin: Please give the measured pKa for this compound: `Cc1cnc2ccc(C)c([N+](=O)[O-])c2c1NCCCN(C)C`
stdout: 6.07

###

A collection of molecules and their measured pKa
Test: physchem
Conditions: aqueous solution
Description: Affinity constant determined in aqueous solution
Quick one: just the number, no unit, thanks!

Use the examples below as a reference point.
>>> df
                                   molecule  readout  quantitative_result
0  COc1cc(OC)c2nccc(NCCCN(C)C)c2c1[N+](=O)[O-]      pKa                 6.25
1  Cc1nc2c(C)ccc([N+](=O)[O-])c2c(NCCCN(C)C)c1C      pKa                 6.67
2  Cc1ccc([N+](=O)[O-])c2c(NCC(O)CO)ccnc12 (centres undefined)      pKa                  7.2
3  COc1ccc([N+](=O)[O-])c2c(NCC(O)CO)ccnc12 (centres undefined)      pKa                  7.1
4  COc1ccc([N+](=O)[O-])c2c(NCCCN(C)C)c(C)c(C)nc12      pKa                 6.64
5  Cc1cnc2c(C)ccc([N+](=O)[O-])c2c1NCCCN(C)C      pKa                  6.1

stdin: Please give the measured pKa for this molecule: O=[N+]([O-])c1cccc2nccc(NCC(O)CO)c12 (centres undefined)
stdout: 6.81

stdin: Please give the result for `O=[N+]([O-])c1cccc2nccc(NCCN3CCOCC3)c12` too.
stdout: 6.78

stdin: Please give the result for `CCCCNc1ccnc2cccc([N+](=O)[O-])c12` too.
stdout: 7.18

stdin: Please give the result for `Cc1ccc([N+](=O)[O-])c2c(NCCCN(C)C)cc(-c3ccccc3)nc12` too.
stdout: 5.43

stdin: Please give the result for `CCc1ccc2nccc(NCCCN(C)C)c2c1[N+](=O)[O-]` too.
stdout: 6.2

stdin: Please give the result for `O=[N+]([O-])c1cccc2nccc(NCCCO)c12` too.
stdout: 7.06

stdin: Please give the result for `Cc1nc2cccc([N+](=O)[O-])c2c(NCCCN(C)C)c1C` too.
stdout: 6.64

stdin: Please give the result for `Cc1cc(C)c2nccc(NCCCN(C)C)c2c1[N+](=O)[O-]` too.
stdout: 6.37
